As shown below, each of these molecules has a reported growth inhibition value.
- measurement notes: NCI Yeast Anticancer Drug Screen. Data for the mlh1 rad18 strain (AID 175)
- condition info: S. cerevisiae mlh1 rad18 strain growth inhibition; at 50.0 µM; active compounds read high
This is part of a sample that, as a whole, favours compounds with a hit. Of some 79,000 tested, about 15% had one in any assay. The source made the active and inactive calls. No stated cut-off is given here; in the data, active means growth inhibition above about 70%; inactive means the rest.
measured property: growth inhibition

>>> val("Cc1cc(=O)n(C)c2c(C)cccc12")
"10.2% (inactive)"
>>> val("CN(C(=O)c1ccccc1)C1(COC(=O)c2ccccc2)CCCCC1")
"9.9% (inactive)"
>>> val("CCCCCCCCCCCCOC(=O)C[n+]1cccc(C(=O)Nc2ccccc2)c1")
"99.2% (active)"
>>> val("CCN(CC)Cc1cc(Nc2c3ccccc3nc3c2[nH]c2ccccc23)ccc1O")
"33.5% (inactive)"
>>> val("COC(=O)C1=C(CS(=O)c2ccccc2[N+](=O)[O-])ON(C)C1c1ccccc1 (stereo unspecified)")
"68.5% (inactive)"
>>> val("CN(C)CCCC1(c2ccccc2)SC(C)(C)c2ccc(Cl)cc21 (stereo unspecified)")
"66% (inactive)"
>>> val("CC(=O)Oc1ccc(N2C(=O)C=CC2=O)cc1")
"52.5% (inactive)"
>>> val("Cc1ccccc1NC(=S)Nc1ccccc1O")
"95.1% (active)"
>>> val("[N-]=[N+]=Nc1c(C=O)c(=O)n(-c2ccccc2)c2ccccc12")
"68.7% (inactive)"
>>> val("[Cu+2].[NH-]c1ccccc1O.[NH-]c1ccccc1[OH2+]")
"75.6% (active)"
>>> val("COc1c2c(c(C)c3ccc4ccccc4c13)CCN=C2")
"79.9% (active)"
